src = PubChem BioAssay

# testDescription: HepG2 cytotoxicity, primary screen, cytotoxicity control for P. falciparum antimalarial project, cell-based, ATP luminescence (AID 2303);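 further: 0% = DMSO wells and 100% = digitonin-killed cells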
# settings: HepG2 viability, 24-48 h, at 10 µM, hits give high values
hey, just use 1 if measured inhibition is less than 20%, otherwise -1

# compound, categoryLabel
measured = [
    ("COCCN(C)CCCOc1cc2c(cc1OC)ncn2-c1cc(OCc2ccccc2C(F)(F)F)c(C(N)=O)s1", -1),
    ("CC(C)CCN1CCC(Oc2ccc(NC(=O)c3ccco3)cc2Cl)CC1", 1),
    ("COc1cccc(C(=O)Nc2ccc(Oc3ccc(Cl)cc3)cc2)c1", -1),
    ("O=C(Nc1ccc(I)cc1)N1CCc2sccc2C1CN1CCCCC1 (stereo unspecified)", -1),
    ("COc1ccc(COc2c(OC)cc(Cc3cnc(N)nc3N)cc2OC)cc1", 1),
]

Kindly review the next compound as well.
Request: Bench note: check whether COc1ccc2c(NCCc3ccccc3)cc(-c3ccccc3)nc2c1 shows inhibition below 20%
Response: 1

---

Please respond with reported growth inhibition for every item in the list.
# testDescription: inhibition of 3D7 malaria parasite growth – strain 3D7 (AID 2306);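 further: 0% = DMSO wells and 100% = chloroquine plus artemisinin control wells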
# settings: P. falciparum 3D7 erythrocytic growth, LDH absorbance, 72 h; at 2 µM; hits give high values
Numbers only, in %.

Study these solved cases before continuing.
# compound, growth inhibition, %
records = [
    ("N#Cc1cccc(C(=O)NC2CCN(c3ccnc(Nc4ccc(F)cc4)n3)C2)c1 (centres undefined)", 98),
    ("COc1ccc(-c2ccc(NC(=O)c3ccc(C#N)cc3)c(F)c2)cc1CN(C)CCN(C)C", 88),
    ("CCOC(=O)c1cn(CC)c2cc(N(C)CCc3ccc(OC)c(OC)c3)c(F)cc2c1=O", 92),
    ("COc1c(C2=CCN(CCCCNC(=O)c3ccc(-c4ccc(C#N)cc4)cc3)CC2)ccc2c1CCCC2", 94),
    ("O=C(Cc1n[nH]c(=O)c2ccccc12)Nc1cccc(C(=O)Nc2cccc(C(F)(F)F)c2)c1", 97),
]

Lab note: each compound below needs its growth inhibition filled in.
1. CN1CCN(CCCN(Cc2cccc(-c3cccc(CNC4CCCC4)c3)c2)C(=O)CCC2CCCC2)CC1
2. Oc1ccc(Nc2nc(NCc3ccco3)c3ccccc3n2)cc1
3. CCOC(=O)c1cnc2c(OC)cc(OC)c(Cl)c2c1Nc1ccccc1
4. COc1ccc(N2CCN(CCCCNC(=O)c3ccc(NC(=O)c4cc(C(F)(F)F)cc(C(F)(F)F)c4)cc3)CC2)cc1OC
5. CS(=O)(=O)c1ccc(CNCc2cccc(-c3cccc(-c4nc5ccc(C(F)(F)F)cc5[nH]4)c3)c2)cc1
6. Oc1ccccc1CN1CCC2(CCCN(Cc3ccccc3F)C2)C1 (centres undefined)
7. CC(C)c1ccc(NC(=O)c2cccc(CN3CCCN(Cc4cccc(C#N)c4)CC3)c2)cc1
8. CCCCCCC(N)c1ccc(OCCCOc2ccc(C(N)CCCCCC)cc2)cc1 (centres undefined)

Response:
[100, 101, 99, 101, 103, 98, 93, 88]

Respectfully, I request growth inhibition for each entry included below.
1. COc1ccc2ncc(F)c(NC(=O)C3CCC(NCc4cc5cc(F)cc(F)c5[nH]4)CC3)c2n1 (centres undefined)
2. COCCn1c(C)cc(C(=O)CN2C(=O)NC(C)(c3ccc(C(C)(C)C)cc3)C2=O)c1C (centres undefined)
3. C=C(C)COc1ccc(-c2n[nH]c(C(F)(F)F)c2-c2ccccc2OC)c(O)c1
4. COc1ccc2nccc([C@@H](O)CN3CCC(NC(=O)c4[nH]c5ccccc5c4-c4ccccc4)CC3)c2c1

Response:
95
97
98
96

Give measured growth inhibition for every item shown.
1. Cc1cc(NN=Cc2cccc([N+](=O)[O-])c2)c2ccccc2n1
2. CC(=O)Nc1ncc(C(=O)Nc2cccc(-c3ccc(-c4nc5ccc(C(F)(F)F)cc5[nH]4)cc3)c2)s1

Response:
1. 101
2. 101
